# Experimental Target: 85/88 kDa calcium-independent phospholipase A2 (Homo sapiens)
# Test Protocol: Inhibition of human group 6A iPLA2 by mixed micelle-based assay
Observation Type: XI50

Guide cases for XI50, answers given:
CCCCCCCCCCOc1ccc(CCC(=O)C(F)(F)F)cc1 :: 0.0208
O=C(CCCCCc1ccccc1)C(F)(F)C(F)(F)F :: 0.0065
CCCCCCOc1ccc(CCCCC(=O)C(F)(F)F)cc1 :: 0.0169
O=C(CCCCCCc1ccccc1)C(F)(F)C(F)(F)F :: 0.0065

I: O=C(CCCCCc1ccccc1)C(F)(F)F
II: CCCCCCOc1ccc(CCC(=O)C(F)(F)F)cc1
Challenge: Hey, which is lower on measured XI50, I or II ? State your choice using its label.
Response given: I
(I: 0.0025, II: 0.0328)
